B1: CPN1 (parent)
chain: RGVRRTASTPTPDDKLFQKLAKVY

Variants of: B1
Assay Overview: protein stability index of a GFP-peptide fusion (GPS, HEK-293T) (PSI 1-6); higher = more stable;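 also: lentivirally expressed fusions sorted by FACS into six bins by GFP to DsRed ratio, PSI derived from sequencing read proportions per bin multiplied by bin number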
Settings: c terminus: a fixed tail appended
Outcome Measure: protein stability index
Answer field: number only, no words.

// Input: RGVRRTASTPTPDDMLFQKLAKVY [K15M] . Output its protein stability index only. 1.33
